Biological target: T1, recombinant human SOST (rhSOST) (human, UniProt Q9BQB4 24-213)
T1 construct: Treated as one molecule; also called recombinant human SOST protein; human sclerostin
T1 sequence: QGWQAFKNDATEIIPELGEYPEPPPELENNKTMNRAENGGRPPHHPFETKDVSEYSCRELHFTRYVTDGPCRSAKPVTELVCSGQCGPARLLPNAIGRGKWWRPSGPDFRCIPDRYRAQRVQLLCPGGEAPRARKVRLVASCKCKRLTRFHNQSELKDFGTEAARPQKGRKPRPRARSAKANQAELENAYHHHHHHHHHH
Test: SPR Biacore T200, IgG captured via anti-human Fc, rhSOST analyte, 37 C
Exercise: state measured pKd for each of the binders provided.
Numbers only, as −log10 of the molar value.

Some solved entries appear below for comparison.
>  <BINDER>
DM24 (antibody, V domains shown, also called mH3/mL2) VH: EVQLLESGGGLVQPGGSLRLSCAASGFTFSDYWMQWVRQAPGKGLEWIGAIYPGDGDTRYNQKFKDRFTISRDNSKNTLYLQMNSLRAEDTAVYYCARSMDYWGQGTLVTVSS VL: DIVMTQSPDSLAVSLGERATINCRASKTVDSYGNSFMHWFQQKPGQPPKLLIYHSSNLESGVPDRFSGSGSGTDFTLTISSLQAEDVAVYYCLQTIEDPYTFGQGTKLEIK

>  <READOUT_NUMBER>
10.46

$$$$
>  <BINDER>
DM18 (antibody, V domains shown, also called wt/mL8) VH: EVQLLESGGGLVQPGGSLRLSCAASGHTFTDYWMQWVRQAPGKGLEWIGAIYPGDGDTRYNQKFKDRFTISRDNSKNTLYLQMNSLRAEDTAVYYCARSMDYWGQGTLVTVSS VL: DIVMTQSPDSLAVSLGERATINCRASKTVDSYGNSFMHWFQQKPGQPPKLLIHHSSNLESGVPDRFSGSGSGTDFTLTISSLQAEDVAVYYCLQTIDEPYTFGQGTKLEIK

>  <READOUT_NUMBER>
9.75

$$$$

Now let's try a different one.
Exercise: Any idea what pKd was measured for DM14 (antibody, V domains shown, also called wt/mL3) VH: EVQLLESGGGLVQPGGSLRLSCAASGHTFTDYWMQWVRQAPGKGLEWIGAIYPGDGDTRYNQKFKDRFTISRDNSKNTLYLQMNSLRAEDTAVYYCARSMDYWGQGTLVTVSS VL: DIVMTQSPDSLAVSLGERATINCRASKTVDSYGNSFMHWYQQKPGQPPKLLIYHSSNLESGVPDRFSGSGSGTDFTLTISSLQAEDVAVYYCLQTIEDPYTFGQGTKLEIK ?
Key: 10.80
